- test-system: T1, TFAM (UniProt Q00059 43-246)
- T1 sequence: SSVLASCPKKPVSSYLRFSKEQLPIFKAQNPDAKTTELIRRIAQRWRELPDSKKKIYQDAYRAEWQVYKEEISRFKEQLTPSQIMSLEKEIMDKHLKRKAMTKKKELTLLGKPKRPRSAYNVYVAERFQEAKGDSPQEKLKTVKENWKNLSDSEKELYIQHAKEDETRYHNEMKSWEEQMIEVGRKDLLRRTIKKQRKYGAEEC
- test-name: fluorescence anisotropy; FA: 50 mM HEPES-Na pH 7.4, 150 mM NaCl, 1 mM DTT, 20 C, 500 pM FM-DNA, Hill fit; EMSA: 5 nM FM-DNA, 8% PAGE, 0.33x TBE
- experimental-parameters: protein: recombinant; label: 5'-6FAM; G-quadruplex possible (previous studies)
observed-property: Kd (nM)
Value expressed in nM; do not type the unit.

Form field Kd, entry GGGGACGACGTCGTGGGGGGG (XNA, phosphorothioate (positions in Fig 1A)) [CpG-A (PS)] : 1.83

Provenance of the data: paper PMC4900672
